Test: Cytotoxicity against African green monkey Vero cells incubated for 48 hrs by SRB colorimetric assay
Type: toxicity, cell-based, Chlorocebus sabaeus

entrySmiles | IC50 at 48 h / µg/mL
CO[C@H]1[C@H](O)[C@@H](O)[C@H](O[C@H](C[C@@]2(C)[C@H](C)CCC(=O)[C@@H]2C)/C(C)=C/Cc2c(O)c(Cl)c(C)c(C=O)c2O)O[C@@H]1CO | 6.9

###

Test system: Jurkat
Test: Cytotoxicity against human Jurkat cells incubated for 16 hrs by MTS colorimetric assay
Assay type: functional, cell-based
pIC50: −log10 of the molar value.

entrySmiles | subjectOfTest | pIC50
CCCCCCCCCCCCCCCCn1cc(CO[C@@H]2O[C@H](CO)[C@@H](O)[C@H](O)[C@H]2O)nn1 | Jurkat | 4.62
